The measured values listed here are drawn from patent US7888363B2.

biological target: hepatitis C virus RNA dependant polymerase (NS5B) (Hepatitis C virus genotype 1b); assay: Inhibition of NS5B RNA dependent RNA polymerase activity; assay type: biochemical; conditions: Table 5; HCV NS5B polymerase
Sequence (P26663 2420-3010): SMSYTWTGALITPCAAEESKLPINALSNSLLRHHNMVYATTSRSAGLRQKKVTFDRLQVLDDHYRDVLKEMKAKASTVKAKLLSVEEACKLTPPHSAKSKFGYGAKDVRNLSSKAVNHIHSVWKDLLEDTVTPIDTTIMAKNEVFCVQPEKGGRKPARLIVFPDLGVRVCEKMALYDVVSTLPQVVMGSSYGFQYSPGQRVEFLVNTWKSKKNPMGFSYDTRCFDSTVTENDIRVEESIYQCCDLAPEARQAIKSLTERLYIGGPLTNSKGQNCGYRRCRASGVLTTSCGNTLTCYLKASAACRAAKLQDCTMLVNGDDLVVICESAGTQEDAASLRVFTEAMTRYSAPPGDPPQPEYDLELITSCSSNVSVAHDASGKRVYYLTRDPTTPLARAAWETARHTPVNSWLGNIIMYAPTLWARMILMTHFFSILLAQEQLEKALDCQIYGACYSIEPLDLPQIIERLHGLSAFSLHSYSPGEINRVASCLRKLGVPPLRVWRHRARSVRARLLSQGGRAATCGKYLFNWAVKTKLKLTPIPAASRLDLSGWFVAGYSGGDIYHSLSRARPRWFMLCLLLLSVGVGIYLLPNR
pIC50: −log10 of the molar value.
The compounds listed here are annotated with their pIC50.

Sample answers from the record:
C/C=C/Cn1c(-c2ccoc2)c(C2CCCCC2)c2ccc(C(=O)O)cc21 ... 5.00 to 6.00
C=CCn1c(-c2ccoc2)c(C2CCCCC2)c2ccc(C(=O)O)cc21 ... 6.00 to 6.70
O=C(O)c1ccc2c(C3CCCCC3)c(-c3ccoc3)n(CC(=S)N3CCOCC3)c2c1 ... 6.00 to 6.70
CC(C)=CCn1c(-c2ccoc2)c(C2CCCCC2)c2ccc(C(=O)O)cc21 ... 5.00 to 6.00
O=C(O)c1ccc2c(C3CCCCC3)c(-c3ccoc3)n(CCC(=O)N3CCOCC3)c2c1 ... 6.00 to 6.70
C=C(C)Cn1c(-c2ccoc2)c(C2CCCCC2)c2ccc(C(=O)O)cc21 ... 6.00 to 6.70
CC(C(=O)N(C)C)n1c(-c2ccoc2)c(C2CCCCC2)c2ccc(C(=O)O)cc21 (stereo not drawn) ... 5.00 to 6.00
CC(C(=O)N1CCOCC1)n1c(-c2ccoc2)c(C2CCCCC2)c2ccc(C(=O)O)cc21 (stereo not drawn) ... 5.00 to 6.00

Kindly consider the entry below.
The compound identified as CN(C)C(=O)CCn1c(-c2ccoc2)c(C2CCCCC2)c2ccc(C(=O)O)cc21 registered its pIC50 at 5.00 to 6.00

====

molecular target: hepatitis C virus RNA dependant polymerase (NS5B) (Hepatitis C virus genotype 1b); assay: Inhibition of NS5B RNA dependent RNA polymerase activity; assay type: biochemical; conditions: Table 4; class ranges
pIC50: −log10 of the molar value.
Readout Name: pIC50

CNC(=O)C1(NC(=O)c2ccc3c(C4CCCCC4)c(-c4ccoc4)n(CC(=O)N4CCC(N5CCCC5)CC4)c3c2)CCCC1 [Example 4094] ... > 6.70
CN1CCN(C(=O)Cn2c(-c3ccoc3)c(C3CCCCC3)c3ccc(C(=O)NCc4ccccn4)cc32)CC1 [Example 4015] ... 6.00 to 6.70
CN1CCN(C(=O)Cn2c(-c3ccoc3)c(C3CCCCC3)c3ccc(C(=O)NCCc4cccnc4)cc32)CC1 [Example 4040] ... 6.00 to 6.70
CN(C)C(=O)C1(NC(=O)c2ccc3c(C4CCCCC4)c(-c4ccoc4)n(CC(=O)N4CCOCC4)c3c2)CCC1 [Example 4093] ... > 6.70
Cc1cnc(CNC(=O)c2ccc3c(C4CCCCC4)c(-c4ccoc4)n(CC(=O)N4CCN(C)CC4)c3c2)cn1 [Example 4044] ... 6.00 to 6.70

Note to self: pIC50 of CN1CCN(C(=O)Cn2c(-c3ccoc3)c(C3CCCCC3)c3ccc(C(=O)NCC(=O)c4ccccc4)cc32)CC1 [Example 4031] with hepatitis C virus RNA dependant polymerase (NS5B) (Hepatitis C virus genotype 1b) was 6.00 to 6.70

Bench note, hepatitis C virus RNA dependant polymerase (NS5B) (Hepatitis C virus genotype 1b): entry CCOC(=O)c1nc(C2(NC(=O)c3ccc4c(C5CCCCC5)c(-c5ccoc5)n(CC(=O)N5CCC(N6CCCC6)CC5)c4c3)CCC2)cs1 [Example 4108] , its pIC50 = 6.00 to 6.70

pIC50 value, target or system hepatitis C virus RNA dependant polymerase (NS5B) (Hepatitis C virus genotype 1b), for COCC(C)NC(=O)c1ccc2c(C3CCCCC3)c(-c3ccoc3)n(CC(=O)N3CCN(C)CC3)c2c1 (centres unmarked) [Example 4020] : 6.00 to 6.70

Record CC(C)(NC(=O)c1ccc2c(C3CCCCC3)c(-c3ccoc3)n(CC(=O)N3CCOCC3)c2c1)C(=O)O [Example 4087] has hepatitis C virus RNA dependant polymerase (NS5B) (Hepatitis C virus genotype 1b) pIC50 equal to > 6.70

Noted pIC50 for CN(C)C(=O)C(C)(C)NC(=O)c1ccc2c(C3CCCCC3)c(-c3ccoc3)n(CC(=O)N3CCC(N4CCCC4)CC3)c2c1 [Example 4086] , tested on hepatitis C virus RNA dependant polymerase (NS5B) (Hepatitis C virus genotype 1b): > 6.70

// assay hepatitis C virus RNA dependant polymerase (NS5B) (Hepatitis C virus genotype 1b), entry CN1CCN(C(=O)Cn2c(-c3ccccn3)c(C3CCCCC3)c3ccc(C(N)=O)cc32)CC1 [Example 4001] , pIC50 value = 5.00 to 6.00
